Molecular target: T1, CRBN, Q96SW2;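 further: pooled lentiviral library of zinc finger degron-EGFP fusions in mCherry-positive Jurkat cells, FACS-sorted after compound exposure, with degron abundance counted by next-generation sequencing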
T1 chain: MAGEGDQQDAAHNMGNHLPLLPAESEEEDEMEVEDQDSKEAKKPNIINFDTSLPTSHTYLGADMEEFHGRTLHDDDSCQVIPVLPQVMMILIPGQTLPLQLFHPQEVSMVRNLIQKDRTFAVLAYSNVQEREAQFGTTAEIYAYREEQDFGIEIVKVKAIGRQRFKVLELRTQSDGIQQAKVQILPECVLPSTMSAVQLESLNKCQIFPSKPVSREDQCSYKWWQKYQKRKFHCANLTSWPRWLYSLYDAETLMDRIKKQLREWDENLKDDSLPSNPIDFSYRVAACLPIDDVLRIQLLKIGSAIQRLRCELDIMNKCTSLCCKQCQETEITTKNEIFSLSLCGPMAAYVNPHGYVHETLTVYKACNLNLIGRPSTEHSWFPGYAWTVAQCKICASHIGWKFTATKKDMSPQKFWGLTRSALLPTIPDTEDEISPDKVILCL
Assay: log2 fold change of degron read counts, EGFP-low vs EGFP+ sorted cells (limma voom), compound-induced degradation; higher = more compound-induced degradation of the degron-EGFP fusion; degrons are variants of IKZF1/3 zinc finger 2; compound dose not given here
Details: Jurkat; 18 h; compound: compound 33 (diphenyl IMiD analogue)
The full ranking holds about 8,300 sequences; the median of “log2 fold change of degron read counts, EGFP-low vs EGFP+ sorted cells (limma voom), compound-induced degradation” is about -1.1, and the highest 2% start at about 3.2. The full list was thinned out, with the highest values kept by preference.

{"columns": ["sequence chain", "log2 fold change of degron read counts"],
 "data": [
  ["FACEICGACFTQKGNLLRHIKL [46F_47A_49E_50I_52G_53A_54C_55F_67L_, Q9UKT9]", 1.54],
  ["FLCNQCGHMFTQKGNLLRHIKL [46F_47L_49N_50Q_52G_53H_54M_55F_67L_, Q9UKT9]", -3.4],
  ["FLCEICGACFTQKGNLLRHIKL [46F_47L_49E_50I_52G_53A_54C_55F_67L_, Q9UKT9]", 1.6],
  ["FHCEICGACFTQKGNLLRHIKL [46F_47H_49E_50I_52G_53A_54C_55F_67L_, Q9UKT9]", 1.42]
]}
